Reference source for all entries: patent US20190359687A1

Molecular target: T1, Rhesus monkey glycophorin A on Rhesus monkey red blood cells (Rhesus monkey, UniProt A0A1D5Q349 20-150)
T1 construct: whole, on cells; also called Rhesus RBC; monkey GPA
T1 sequence: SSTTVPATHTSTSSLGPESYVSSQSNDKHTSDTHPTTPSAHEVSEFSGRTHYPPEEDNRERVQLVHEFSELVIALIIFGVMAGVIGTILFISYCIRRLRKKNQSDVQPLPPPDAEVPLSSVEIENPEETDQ
Assay: FACS, RBC Rh01
reported endpoint: fluorescence intensity

Per the records, this binder ( Hu6C12-4 (antibody, V domains shown, IgG format; VH.1d + Vk.1) VH: EVQLVQSGAEVKKPGASVKVSCKASGYTFTTYTIHWVRQAPGQGLEWMGYINPSSDYTRYNPKFKDRVTLTTDTSTSTAYMELRSLRSDDTAVYYCQRGTRDYWGQGTTVTVSS VL: DIQLTQSPSFLSASVGDRVTITCSAASSVSYIYWYQQKPGKAPKLLIYSTSTLPSGVPSRFSGSGSGTEFTLTISSLQPEDFATYYCHQRNSFPFTFGQGTKLEIK ) has fluorescence intensity equal to 1070

Per the records, this binder ( Hu6C12-10 (antibody, V domains shown, IgG format; VH.1a + Vk.1a) VH: EVQLVQSGAEVKKPGASVKVSCKASGYTFTTYTIHWVRQAPGQGLEWMGYINPSSDYTRYNPKFKDRVTMTTDTSTSTAYMELRSLRSDDTAVYYCQRGTRDYWGQGTTVTVSS VL: DIQLTQSPSFLSASVGDRVTITCSAASSVSYIYWYQQKPGKAPKLLIYSTSTLPSGVPSRFSGSGSGTEYTLTISSLQPEDFATYYCHQRNSFPFTFGQGTKLEIK ) has fluorescence intensity equal to 1410

Per the records, this binder ( Hu6C12-19 (antibody, V domains shown, IgG format; VH.1b + Vk.1b) VH: EVQLVQSGAEVKKPGASVKVSCKASGYTFTTYTIHWVRQAPGQGLEWMGYINPSSDYTRYNPKFKDRVTMTTDTSTSTAYMELRSLRSDDTAVYYCATGTRDYWGQGTTVTVSS VL: DIQLTQSPSFLSASVGDRVTITCSAASSVSYIYWFQQKPGKAPKLLIYSTSTLPSGVPSRFSGSGSGTEYTLTISSLQPEDFATYYCHQRNSFPFTFGQGTKLEIK ) has fluorescence intensity equal to 1620
